Tested on: LLC-MDR1 monolayers
Format: in vitro ADME
Settings: pig, LLC-PK1, 120 min
Reported A->B permeability (Papp × 10^−6 cm/sec) in the presence the P-gp inhibitor GF120918 values for the following compounds.

Look over these answered cases.
COC(=O)N[C@H](C(=O)N1CCCC1c1cc(=O)c2ccc(-c3ccc4cc(-c5cnc([C@@H]6CCCN6C(=O)[C@@H](NC(=O)OC)C(C)C)[nH]5)ccc4c3)cc2[nH]1)C(C)C (single isomer, unassigned) [Compound 13b]; 0.5 10^−6 cm/sec
COC(=O)N[C@H](C(=O)N1CCC[C@H]1c1ncc(-c2ccc3cc(-c4ccc5c(=O)[nH]c([C@@H]6CCCN6C(=O)[C@H](NC(=O)OC(C)(C)C)c6ccccc6)nc5c4)ccc3c2)[nH]1)C(C)C; 2.7 10^−6 cm/sec
COC(=O)N[C@H](C(=O)N1CCC[C@H]1c1ncc(-c2ccc3cc(-c4ccc5c(c4)NC([C@@H]4CCCN4C(=O)[C@H](NC(=O)OC)c4ccccc4)=NS5(=O)=O)ccc3c2)[nH]1)C(C)C; 1.0 10^−6 cm/sec

Now, please, on to the next compound.
query: Give the measured A->B permeability (Papp × 10^−6 cm/sec) in the presence the P-gp inhibitor GF120918 of COC(=O)N[C@H](C(=O)N1CCC[C@H]1c1ncc(-c2ccc3cc(-c4ccc5c(=O)[nH]c([C@@H]6CCCN6C(=O)[C@@H](NC(=O)OC)C(C)C)nc5c4)ccc3c2)[nH]1)C(C)C .
result: 6.9 10^−6 cm/sec
